# Measured On: SOS1:KRAS (G12C) interaction (Homo sapiens (Human), UniProt Q07889)
# Sequence (Q07889 564-1049, stated change not applied): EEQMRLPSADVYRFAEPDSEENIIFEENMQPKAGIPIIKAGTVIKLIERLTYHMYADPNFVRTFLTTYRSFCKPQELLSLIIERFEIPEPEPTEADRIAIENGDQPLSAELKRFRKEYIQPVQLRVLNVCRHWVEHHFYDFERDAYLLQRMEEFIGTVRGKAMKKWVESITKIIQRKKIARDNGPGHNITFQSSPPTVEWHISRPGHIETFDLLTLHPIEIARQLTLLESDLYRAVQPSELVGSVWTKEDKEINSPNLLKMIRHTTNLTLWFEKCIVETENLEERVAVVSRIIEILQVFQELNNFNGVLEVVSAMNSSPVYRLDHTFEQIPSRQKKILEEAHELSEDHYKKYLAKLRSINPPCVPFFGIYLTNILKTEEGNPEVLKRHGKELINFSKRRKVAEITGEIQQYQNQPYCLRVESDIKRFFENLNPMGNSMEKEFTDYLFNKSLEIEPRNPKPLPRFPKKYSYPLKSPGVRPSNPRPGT
# Test Name: SOS1-KRas(G12C) FRET Assay
# Test Parameters: 0.5 nM His10-SOS1 (res. 564-1049), 2.5 nM GST-KRAS (res. 1-169, G12C); read-out: SOS-KRas(G12C) FRET IC50
pIC50: −log10 of the molar value.
A collection of compounds and their measured pIC50

Cn1nc(N[C@H](c2cccc(C(F)(F)F)c2)C(F)F)c2cn(C3CC3)c(=O)cc2c1=O [Example 112]    < 5.00
C[C@H](Nc1nn(C)c(=O)c2cc(=O)n(C3CC3)cc12)c1cccc(C(F)(F)C(=O)N(C)C)c1F [Example 105]    < 5.00

Requested read-out pIC50, target or system SOS1:KRAS (G12C) interaction (Homo sapiens (Human), UniProt Q07889), entry C[C@H](Nc1nn(C)c(=O)c2cc(=O)n(C3(C(F)F)CC3)cc12)c1cccc2cccn12 [Example 113]
< 5.00

The origin of these recorded values is patent US20240279221A1.
